# testedTarget: proteins in rat lung membranes
# experimentSummary: Competitive binding assay with [3H]-CP2117 on rat lung membranes (RLM)
# conditionSummary: given as Log IC50 (negative values); displacement of 10 nM [3H]-CP2117, overnight at 4° C.; ND- not detected
measurementLabel: Log IC50 RLM binding

- molecule: "COc1cc(-c2ccc(OC)c(OC)c2)c(/C(C)=N/OCc2ccc([N+](=O)[O-])cc2)cc1O"
  measurementLabel: "Log IC50 RLM binding"
  assayValue: "−6.14"
- molecule: "COc1ccc(/C(C)=N/OCc2cccc(F)c2)cc1F"
  measurementLabel: "Log IC50 RLM binding"
  assayValue: "−5.5"
- molecule: "COc1ccc(/C(C)=N/OCc2ccc3nonc3c2)cc1O [CP933]"
  measurementLabel: "Log IC50 RLM binding"
  assayValue: "−6.185"
